Recorded IC50 for the following compounds
biological target: G1 APOL1 (Homo sapiens, UniProt O14791, I384M/S342G); construct: expressed in transfected cells; test: Acute APOL1 Thallium Assay with Inducible Stable Clones of HEK 293 Cells; type: cell-based; conditions: HEK 293 inducible stable clones, G1 APOL1; read-out: Thallium Assay (IC50)
Sequence (O14791 28-398 S342G/I384M): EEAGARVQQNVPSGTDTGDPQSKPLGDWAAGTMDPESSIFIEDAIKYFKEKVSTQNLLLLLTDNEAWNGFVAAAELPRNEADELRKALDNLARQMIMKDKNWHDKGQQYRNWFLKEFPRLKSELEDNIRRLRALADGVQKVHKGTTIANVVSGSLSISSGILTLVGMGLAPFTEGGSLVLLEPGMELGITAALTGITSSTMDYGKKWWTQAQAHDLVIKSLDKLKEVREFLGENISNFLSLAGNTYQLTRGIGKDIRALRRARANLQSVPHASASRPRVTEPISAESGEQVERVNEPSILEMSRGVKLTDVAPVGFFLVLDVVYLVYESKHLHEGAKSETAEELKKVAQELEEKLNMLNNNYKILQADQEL

Compound: Cc1cc(F)c2[nH]c(-c3ccc(F)cc3)c(CCC(=O)NCCO)c2c1
IC50: > 1000 nM
//
Compound: O=C1NCCCC1C(=O)NCCc1c(-c2ccc(F)cc2)[nH]c2c(F)cc(F)cc12 (stereo not shown)
IC50: > 1000 nM
//
Compound: O=C(CCc1c(-c2ccc(F)cc2)[nH]c2ccc(F)cc12)NC1(CO)CC1
IC50: 250 to 1000 nM
//
Compound: C[C@H](CO)NC(=O)NCCc1c(-c2ccc(F)cc2)[nH]c2c(F)cc(F)cc12
IC50: 250 to 1000 nM
//
Compound: Cn1nccc1NC(=O)CCc1c(-c2ccc(F)cc2)[nH]c2c(F)cc(F)cc12
IC50: > 1000 nM
//
Compound: O=C(NCCc1c(-c2ccc(F)cc2)[nH]c2c(F)cc(F)cc12)NCc1ccoc1
IC50: > 1000 nM
//
Compound: O=C(NCc1ncc[nH]1)OCCc1c(-c2ccc(F)cc2)[nH]c2c(F)cc(F)cc12
IC50: > 1000 nM
//
Compound: O=C(CCc1c(-c2ccc(F)cc2)[nH]c2c(F)cc(F)cc12)N[C@H]1C[C@H](O)C1
IC50: > 1000 nM
//
Compound: O=C1CC(C(=O)NCCc2c(-c3ccc(F)cc3)[nH]c3c(F)cc(F)cc23)NC(=O)N1 (stereo not shown)
IC50: > 1000 nM
//
Compound: CN(C[C@H](O)CO)C(=O)OCCc1c(-c2ccc(F)cc2)[nH]c2c(F)cc(F)cc12
IC50: > 1000 nM
//
Compound: Cc1csc(NC(=O)CCc2c(-c3ccc(F)cc3)[nH]c3c(F)cc(F)cc23)n1
IC50: > 1000 nM
//
Compound: COCCNC(=O)CCc1c(-c2ccc(F)cc2)[nH]c2c(F)cc(F)cc12
IC50: > 1000 nM
//
Compound: O=C(CCc1c(-c2ccc(F)cc2)[nH]c2c(F)cc(F)cc12)NC(CCO)C(=O)O (stereo not shown)
IC50: < 250 nM
//
Compound: O=C(NC[C@@H](O)CO)OCCc1c(-c2ccc(F)cc2)[nH]c2c(F)cc(F)cc12
IC50: > 1000 nM
//
Compound: O=C(CCc1c(-c2ccc(F)cc2)[nH]c2c(F)cc(Cl)cc12)NC[C@@H](O)CO
IC50: > 1000 nM
//
Compound: O=C(NCCc1c(-c2ccc(F)cc2)[nH]c2c(F)cc(F)cc12)c1cscn1
IC50: > 1000 nM
//
Compound: CC(C)(C)OC(=O)N1C[C@H](NC(=O)CCc2c(-c3ccc(F)cc3)[nH]c3ccc(F)cc23)[C@@H](O)C1
IC50: > 1000 nM
//
Compound: CC1CC(NC(=O)CCc2c(-c3ccc(F)cc3)[nH]c3c(F)cc(F)cc23)C(=O)O1 (mixture of isomers)
IC50: > 1000 nM
//
Compound: O=C(NC1CC(O)C1)OCCc1c(-c2ccc(F)cc2)[nH]c2c(F)cc(F)cc12 (stereo not shown)
IC50: 250 to 1000 nM
//
Compound: Cn1cnc(C(=O)NCCc2c(-c3ccc(F)cc3)[nH]c3c(F)cc(F)cc23)c1
IC50: > 1000 nM
//
Compound: C[C@H](O)C(=O)NCCc1c(-c2ccc(F)cc2)[nH]c2c(F)cc(F)cc12
IC50: 250 to 1000 nM
//
Compound: C[C@H](O)[C@H](CO)NC(=O)OCCc1c(-c2ccc(F)cc2)[nH]c2c(F)cc(F)cc12
IC50: < 250 nM
